tgt: PARP-1 (Homo sapiens, UniProt P09874)
Sequence (P09874 2-1014): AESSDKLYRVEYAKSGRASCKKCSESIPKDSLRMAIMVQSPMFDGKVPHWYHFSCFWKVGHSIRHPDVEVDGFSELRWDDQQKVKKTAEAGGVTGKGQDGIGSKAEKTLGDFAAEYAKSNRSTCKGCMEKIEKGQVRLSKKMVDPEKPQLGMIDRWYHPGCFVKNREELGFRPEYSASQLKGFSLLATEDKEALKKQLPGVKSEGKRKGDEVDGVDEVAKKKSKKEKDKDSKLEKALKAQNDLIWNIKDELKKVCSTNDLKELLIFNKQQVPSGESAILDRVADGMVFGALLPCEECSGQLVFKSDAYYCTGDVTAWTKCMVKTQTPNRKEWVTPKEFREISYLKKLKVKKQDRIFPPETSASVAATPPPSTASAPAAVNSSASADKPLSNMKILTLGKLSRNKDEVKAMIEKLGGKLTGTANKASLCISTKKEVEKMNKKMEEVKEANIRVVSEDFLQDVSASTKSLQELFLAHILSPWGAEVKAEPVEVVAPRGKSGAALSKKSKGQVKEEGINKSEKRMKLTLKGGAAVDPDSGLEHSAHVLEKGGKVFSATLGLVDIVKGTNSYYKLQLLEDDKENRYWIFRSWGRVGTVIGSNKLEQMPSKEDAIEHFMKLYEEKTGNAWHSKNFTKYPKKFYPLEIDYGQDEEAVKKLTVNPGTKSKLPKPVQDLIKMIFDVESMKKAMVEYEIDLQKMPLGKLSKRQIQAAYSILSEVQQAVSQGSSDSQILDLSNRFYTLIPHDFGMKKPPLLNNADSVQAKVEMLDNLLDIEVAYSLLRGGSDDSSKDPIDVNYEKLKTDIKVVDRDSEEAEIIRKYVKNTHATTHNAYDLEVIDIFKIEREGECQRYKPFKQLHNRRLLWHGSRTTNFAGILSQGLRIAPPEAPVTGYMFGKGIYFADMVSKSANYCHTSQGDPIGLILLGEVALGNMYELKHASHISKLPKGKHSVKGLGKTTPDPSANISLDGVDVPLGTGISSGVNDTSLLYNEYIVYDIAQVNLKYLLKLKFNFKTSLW
measurement type: pIC50
Here pIC50 is given on a logarithmic scale as minus log10 of the concentration in mol/L.

Lookup: Please give the measured pIC50 for this compound: COc1ccc2c(c1O)CNCC2c1ccc(O)c(O)c1 (stereo not shown)
Found: 6.62
